Field: protein stability index. Provide a value for each of the variants that follow.
B1: MMP1 (parent)
chain: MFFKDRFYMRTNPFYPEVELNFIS

Variants of: B1
Experiment: protein stability index of a GFP-peptide fusion (GPS, HEK-293T) (PSI 1-6); higher = more stable;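 note: lentivirally expressed fusions sorted by FACS into six bins by GFP to DsRed ratio, PSI derived from sequencing read proportions per bin multiplied by bin number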
Conditions: c terminus: a fixed tail appended
Lab note: jot the number down without any unit.

Per the record, `MFFKDHFYMRTNPFYPEVELNFIS` has protein stability index of 3.05

Per the record, `MFFKDRFYMRTNPFYPEAELNFIS` has protein stability index of 3.25

Per the record, `MFFKDRFYMRTNPFYPEVELIFIS` has protein stability index of 3.34

Per the record, `MFFKDRFYMRTNPFYPEVELNAIS` has protein stability index of 2.48

Per the record, `MFFRDRFYMRTNPFYPEVELNFIS` has protein stability index of 2.56

Per the record, `MFFKDRFIMRTNPFYPEVELNFIS` has protein stability index of 2.73

Per the record, `MFFKDRFYMRTNNFYPEVELNFIS` has protein stability index of 2.29

Per the record, `MFYKDRFYMRTNPFYPEVELNFIS` has protein stability index of 2.97

Per the record, `MFFKDWFYMRTNPFYPEVELNFIS` has protein stability index of 2.14

Per the record, `MFEKDRFYMRTNPFYPEVELNFIS` has protein stability index of 1.5

Per the record, `MFFKDRFYMRTNPFYPEVELNFMS` has protein stability index of 3.28

Per the record, `MFFKDRFYMRTNKFYPEVELNFIS` has protein stability index of 2.58

Per the record, `MFDKDRFYMRTNPFYPEVELNFIS` has protein stability index of 1.85

Per the record, `MFFKDRFYMRTNPFYPEFELNFIS` has protein stability index of 2.61

Per the record, `MFFKDRFYMRTNPFYPEVELNFAS` has protein stability index of 2.47

Per the record, `MFFKDCFYMRTNPFYPEVELNFIS` has protein stability index of 2.09

Per the record, `MFFKDRFYMRTIPFYPEVELNFIS` has protein stability index of 2

Per the record, `MFFKDRFYMGTNPFYPEVELNFIS` has protein stability index of 2.73

Per the record, `MFFKDRFYMRTNPFCPEVELNFIS` has protein stability index of 3.47

Per the record, `MFFKDRFYMRTNPFYPELELNFIS` has protein stability index of 2.41

Per the record, `MFFKDRFYMWTNPFYPEVELNFIS` has protein stability index of 2.82

Per the record, `MFFKDRMYMRTNPFYPEVELNFIS` has protein stability index of 2.98
